Test system: 3T3 cells
Test Summary: Cytotoxicity against 3T3 cells
Type: cell-based
# note: boundary value 300 µM maps to 0; EC50 below it maps to 1

Use these answered entries as a reference point.
N=C(N)NCCc1cccc(NC(=O)Nc2cccc(CCNC(=N)N)c2)c1 | 0
CN(C)CCSc1cc(SCCN(C)C)c(C(F)(F)F)cc1NC(=O)c1cc(C(=O)Nc2cc(C(F)(F)F)c(SCCN(C)C)cc2SCCN(C)C)ncn1 | 1
N=C(N)NCCCOc1cc(OCCCNC(=N)N)c(-c2cccc(F)c2)cc1-c1cccc(F)c1 | 1
N=C(N)NCCc1cccc(-c2cnc(-c3cccc(CCNC(=N)N)c3)s2)c1 | 0
NCCc1ccccc1-c1ccc(-c2ccccc2CCN)s1 | 1

Q) Decide: EC50 of N=C(N)NCCSc1ccc(NC(=O)Nc2ccc(SCCNC(=N)N)c(C(F)(F)F)c2)cc1C(F)(F)F strictly below 300 µM?
A) 1

Q) Decide: EC50 of O=C(Nc1cc(C(F)(F)F)c(OC2CCNC2)cc1OC1CCNC1)c1cc(C(=O)Nc2cc(C(F)(F)F)c(OC3CCNC3)cc2OC2CCNC2)ncn1 (centres unmarked) strictly below 300 µM?
A) 1

Q) Decide: EC50 of CN1CCN(c2ccc(-c3ccc(-c4ccc(N5CCN(C)CC5)cc4)s3)cc2)CC1 strictly below 300 µM?
A) 0

###

Test Summary: Cytotoxicity against HepG2 cells
Format: cell-based
Condition Description: human, HepG2 cells; read-out: Cytotoxicity HepG2 EC50
Measurement Label: EC50 (µM)
Please respond with the number in µM and leave the unit unwritten.

Below, 9 compounds whose answers are already recorded.
N=C(N)NCCCCC(=O)Nc1cccc(NC(=O)c2cc(C(=O)Nc3cccc(NC(=O)CCCCNC(=N)N)c3SCCN)ncn2)c1SCCN | 676
N=C(N)NCCCCC(=O)Nc1cc(Br)cc(NC(=O)c2cc(C(=O)Nc3cc(Br)cc(NC(=O)CCCCNC(=N)N)c3SCCO)ncn2)c1SCCO | 165
COc1ccc(CN)cc1NC(=O)c1cc(C(=O)Nc2cc(CN)ccc2OC)ncn1 | 362
N=C(N)NCCCc1cccc(-c2ccc3c4ccc(-c5cccc(CCCNC(=N)N)c5)cc4n(CCCNC(=N)N)c3c2)c1 | 100
N=C(N)NCCCc1cccc(-c2cncc(-c3cccc(CCCNC(=N)N)c3)c2)c1 | 456
N=C(N)N1CCN(c2ccc(-c3cccc(-c4ccc(N5CCN(C(=N)N)CC5)nc4)c3)cn2)CC1 | 305
N=C(N)NCCCCOc1cc(OCCCCNC(=N)N)c(C(F)(F)F)cc1NC(=O)Nc1cc(C(F)(F)F)c(OCCCCNC(=N)N)cc1OCCCCNC(=N)N | 232
NCCCOc1cc(OCCCN)cc(-c2ccc3c(c2)c2cc(-c4cc(OCCCN)cc(OCCCN)c4)ccc2n3CCCN)c1 | 885
N=C(N)NCCCCC(=O)Nc1cc(C(F)(F)F)cc(NC(=O)c2cc(C(=O)Nc3cc(C(F)(F)F)cc(NC(=O)CCCCNC(=N)N)c3SCCNC(=O)CN)ncn2)c1SCCNC(=O)CN | 224

For the next question, use this compound.
Q) Please look at this compound and report its EC50: N=C(N)NCCCCC(=O)Nc1ccc(-c2nnc(-c3ccc(NC(=O)CCCCNC(=N)N)cc3)o2)cc1
A) 356

###

Collected pEC50 values appear next to each entry.
Test Summary: Cytotoxicity against HepG2 cells
Assay type: cell-based
Condition Description: human, HepG2 cells; read-out: Cytotoxicity HepG2 EC50
The scale used: pEC50 is minus the common logarithm of the concentration in molar units.

N=C(N)NCCCOc1cc(OCCCNC(=N)N)c(-c2ccc(C(F)(F)F)cc2)cc1-c1ccc(C(F)(F)F)cc1 | 4.05
NCCN1CCc2ccc(NC(=O)c3cc(C(=O)Nc4ccc5c(c4)CCN(CCN)CC5)ncn3)cc2CC1 | 3.43
N=C(N)NCCc1ccc(C(F)(F)F)cc1NC(=O)c1cc(C(=O)Nc2cc(C(F)(F)F)ccc2CCNC(=N)N)ncn1 | 3.22
N#Cc1cccc(C(=O)Nc2cc(NC(=O)c3cc(C(=O)Nc4cc(NC(=O)c5cccc(C#N)c5)cc(C(F)(F)F)c4)c(OCCN)cc3OCCN)cc(C(F)(F)F)c2)c1 | 3.04
NCc1ccc(C(F)(F)F)c(Oc2ccc(S(=O)(=O)c3ccc(Oc4cc(CN)ccc4C(F)(F)F)cc3)cc2)c1 | 4.30
COc1cc(SCCN)c(C(F)(F)F)cc1NC(=O)Nc1ccc(SCCNC(=N)N)c(C(F)(F)F)c1 | 3.81
NCCSc1ccc(NC(=O)c2cc(C(=O)Nc3ccc(SCCN)c(C(F)(F)F)c3)ncn2)cc1C(F)(F)F | 5.05
N=C(N)NCCc1ccc(-c2ccc(-c3ccc(CCNC(=N)N)cc3)s2)cc1 | 4.27
O=C(Nc1ccc(O[C@@H]2CCNC2)c(Cl)c1)c1cc(C(=O)Nc2ccc(O[C@@H]3CCNC3)c(Cl)c2)ncn1 | 3.51
O=C(Nc1ccc(OC2CNC2)cc1)c1cc(C(=O)Nc2ccc(OC3CNC3)cc2)ncn1 | 3.03

Q) Please look at this compound and report its pEC50: CN1CC[C@@H](Oc2ccc(NC(=O)c3cc(C(=O)Nc4ccc(O[C@@H]5CCN(C)C5)c(C(F)(F)F)c4)ncn3)cc2C(F)(F)F)C1
A) 3.32

Q) Please look at this compound and report its pEC50: NCc1cc(C(F)(F)F)ccc1Oc1ccc(Oc2ccc(C(F)(F)F)cc2CN)cc1
A) 4.15

###

Test Summary: Cytotoxicity against 3T3 cells
Assay type: cell-based
Condition Description: mouse, 3T3 cells; read-out: Cytotoxicity 3T3 EC50
# note: boundary value 80 µM maps to not satisfied; EC50 below it maps to satisfied

Use these answered entries as a reference point.
CN1CC[C@@H](Oc2ccc(NC(=O)c3cc(C(=O)Nc4ccc(O[C@@H]5CCN(C)C5)c(C(F)(F)F)c4)ncn3)cc2C(F)(F)F)C1 | not satisfied
CN1CCN(c2ccc(NC(=O)c3cc(C(=O)Nc4ccc(N5CCN(C)CC5)cc4)ncn3)cc2)CC1 | not satisfied

Q) Decide: EC50 of N=C(N)NCCCCC(=O)Nc1ccc(-c2ccc(NC(=O)CCCCNC(=N)N)c(C(F)(F)F)c2)cc1C(F)(F)F strictly below 80 µM?
A) not satisfied

Q) Decide: EC50 of NCCCOc1cccc(-n2cc(-c3ccc4ccc(-c5cn(-c6cccc(OCCCN)c6)nn5)cc4c3)nn2)c1 strictly below 80 µM?
A) not satisfied

Q) Decide: EC50 of NC1CCC(Oc2ccc(NC(=O)c3cc(C(=O)Nc4ccc(OC5CCC(N)CC5)cc4)ncn3)cc2)CC1 (centres unmarked) strictly below 80 µM?
A) satisfied

Q) Decide: EC50 of c1nc(-c2ccc(N3CCNCC3)cc2)cc(-c2ccc(N3CCNCC3)cc2)n1 strictly below 80 µM?
A) not satisfied

Q) Decide: EC50 of COc1cc(SCCN)c(C(F)(F)F)cc1NC(=O)c1cc(C(=O)Nc2cc(C(F)(F)F)c(SCCN)cc2OC)nc(SCCN)n1 strictly below 80 µM?
A) not satisfied

Q) Decide: EC50 of NCCN1CCc2ccc(NC(=O)c3cc(C(=O)Nc4ccc5c(c4)CCN(CCN)CC5)ncn3)cc2CC1 strictly below 80 µM?
A) not satisfied

Q) Decide: EC50 of N=C(N)NCCCc1cc(SCCN)c(NC(=O)c2cc(C(=O)Nc3cc(C(F)(F)F)c(CCCNC(=N)N)cc3SCCN)ncn2)cc1C(F)(F)F strictly below 80 µM?
A) satisfied

Q) Decide: EC50 of N=C(N)N1CCN(c2ccc(-c3ccc(-c4ccc(N5CCN(C(=N)N)CC5)nc4)s3)cn2)CC1 strictly below 80 µM?
A) satisfied

Q) Decide: EC50 of NCCSc1c(NC(=O)c2cccc(Br)c2)cc(C(F)(F)F)cc1NC(=O)c1cc(C(=O)Nc2cc(C(F)(F)F)cc(NC(=O)c3cccc(Br)c3)c2SCCN)ncn1 strictly below 80 µM?
A) not satisfied

Q) Decide: EC50 of N=C(N)NCCCc1cccc(-c2ccc3c4ccc(-c5cccc(CCCNC(=N)N)c5)cc4n(CCCNC(=N)N)c3c2)c1 strictly below 80 µM?
A) not satisfied

Q) Decide: EC50 of COc1cccc(C(=O)Nc2cc(C(F)(F)F)cc(NC(=O)c3cc(C(=O)Nc4cc(C(F)(F)F)cc(NC(=O)c5cccc(OC)c5)c4SCCN)ncn3)c2SCCN)c1 strictly below 80 µM?
A) not satisfied

Q) Decide: EC50 of O=C(Nc1ccc(N2CCNCC2)cc1)c1cc(C(=O)Nc2ccc(N3CCNCC3)cc2)ncn1 strictly below 80 µM?
A) not satisfied

Q) Decide: EC50 of COc1cc(SCCN)c(C(F)(F)F)cc1NC(=O)Nc1ccc(SCCNC(=N)N)c(C(F)(F)F)c1 strictly below 80 µM?
A) satisfied

Q) Decide: EC50 of c1cc(N2CCNCC2)ccc1-c1ccc(N2CCNCC2)cc1 strictly below 80 µM?
A) not satisfied

Q) Decide: EC50 of CCn1c2ccc(N3CCN(C(=N)N)CC3)cc2c2cc(N3CCN(C(=N)N)CC3)ccc21 strictly below 80 µM?
A) not satisfied

Q) Decide: EC50 of NCCSc1c(NC(=O)c2cccc(F)c2)cc(C(F)(F)F)cc1NC(=O)c1cc(C(=O)Nc2cc(C(F)(F)F)cc(NC(=O)c3cccc(F)c3)c2SCCN)ncn1 strictly below 80 µM?
A) not satisfied

Q) Decide: EC50 of N#Cc1cccc(C(=O)Nc2cc(C(F)(F)F)cc(NC(=O)c3cc(C(=O)Nc4cc(C(F)(F)F)cc(NC(=O)c5cccc(C#N)c5)c4O[C@@H]4CCNC4)ncn3)c2O[C@@H]2CCNC2)c1 strictly below 80 µM?
A) satisfied

Q) Decide: EC50 of NCc1cc(C(F)(F)F)ccc1Oc1ccc(Oc2ccc(C(F)(F)F)cc2CN)cc1 strictly below 80 µM?
A) satisfied

Hey, just so you know, these numbers are from patent US20150094294A1.
